measurement.target: PI3Kβ (Homo sapiens, UniProt P42338)
Construct: purchased Merck Millipore
Sequence (P42338 whole entry): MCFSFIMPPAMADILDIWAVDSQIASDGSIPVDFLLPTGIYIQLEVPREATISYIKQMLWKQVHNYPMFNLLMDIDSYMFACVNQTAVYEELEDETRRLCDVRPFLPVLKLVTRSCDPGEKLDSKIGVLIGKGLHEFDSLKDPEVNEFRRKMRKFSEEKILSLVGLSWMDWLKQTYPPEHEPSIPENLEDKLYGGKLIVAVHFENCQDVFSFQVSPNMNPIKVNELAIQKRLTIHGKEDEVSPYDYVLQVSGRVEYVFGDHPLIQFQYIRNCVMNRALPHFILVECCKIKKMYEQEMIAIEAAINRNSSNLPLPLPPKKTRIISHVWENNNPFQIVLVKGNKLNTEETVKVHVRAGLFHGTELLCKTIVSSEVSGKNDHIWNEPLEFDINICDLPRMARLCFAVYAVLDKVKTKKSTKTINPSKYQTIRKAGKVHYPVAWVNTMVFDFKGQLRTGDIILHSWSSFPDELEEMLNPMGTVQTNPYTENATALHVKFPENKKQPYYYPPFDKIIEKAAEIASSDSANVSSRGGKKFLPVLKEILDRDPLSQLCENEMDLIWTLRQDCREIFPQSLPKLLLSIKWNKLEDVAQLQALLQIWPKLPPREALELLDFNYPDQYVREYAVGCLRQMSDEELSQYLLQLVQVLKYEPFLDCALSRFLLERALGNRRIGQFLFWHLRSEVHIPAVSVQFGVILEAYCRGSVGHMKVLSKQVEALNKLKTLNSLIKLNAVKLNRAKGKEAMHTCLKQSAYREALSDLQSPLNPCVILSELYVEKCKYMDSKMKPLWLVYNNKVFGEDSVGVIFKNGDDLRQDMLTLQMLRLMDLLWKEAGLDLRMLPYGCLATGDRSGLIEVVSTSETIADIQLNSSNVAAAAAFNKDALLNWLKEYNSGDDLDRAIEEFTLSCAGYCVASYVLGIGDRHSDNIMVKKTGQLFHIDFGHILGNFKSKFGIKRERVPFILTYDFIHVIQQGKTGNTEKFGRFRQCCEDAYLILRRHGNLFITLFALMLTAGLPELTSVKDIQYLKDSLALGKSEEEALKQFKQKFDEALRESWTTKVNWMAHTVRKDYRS
Sequence (P27986 whole entry, further chain): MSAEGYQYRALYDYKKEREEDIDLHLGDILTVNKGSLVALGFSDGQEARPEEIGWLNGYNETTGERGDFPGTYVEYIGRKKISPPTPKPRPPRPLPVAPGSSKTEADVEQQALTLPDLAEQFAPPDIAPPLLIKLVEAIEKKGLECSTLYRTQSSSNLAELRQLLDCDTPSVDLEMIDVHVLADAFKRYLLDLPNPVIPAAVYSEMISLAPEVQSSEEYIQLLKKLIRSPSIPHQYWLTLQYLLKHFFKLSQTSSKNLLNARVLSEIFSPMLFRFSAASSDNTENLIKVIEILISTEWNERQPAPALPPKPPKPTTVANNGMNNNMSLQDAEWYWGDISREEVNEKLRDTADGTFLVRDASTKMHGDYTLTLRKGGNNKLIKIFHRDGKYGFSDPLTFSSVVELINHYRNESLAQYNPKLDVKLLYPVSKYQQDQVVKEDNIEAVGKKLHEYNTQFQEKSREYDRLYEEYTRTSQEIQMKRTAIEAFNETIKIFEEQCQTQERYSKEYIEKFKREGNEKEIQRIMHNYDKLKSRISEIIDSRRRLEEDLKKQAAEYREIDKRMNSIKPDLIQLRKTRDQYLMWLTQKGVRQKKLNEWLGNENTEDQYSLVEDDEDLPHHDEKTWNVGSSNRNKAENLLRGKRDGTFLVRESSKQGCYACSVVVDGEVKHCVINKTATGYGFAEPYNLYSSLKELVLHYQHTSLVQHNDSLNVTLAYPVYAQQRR
procedure.text: PI3K kinases inhibition in vitro (ADP-Glo), PI3Kβ
Type: biochemical
Experimental: Tested compounds were dissolved in 100% DMSO, and thus obtained solutions were serially diluted in 1× reaction buffer. […] Detection of ADP formed in the enzymatic reaction was then performed using ADP-Glo Kinase Assay (Promega). […] After incubation time, luminescence intensity in a well was measured by Victor Light luminometer (Perkin Elmer, Inc.). […]
pIC50: −log10 of the molar value.
Overview of reported pIC50 across a group of compounds:
readout.name: pIC50

# chemical.string, measurement.target, endpoint.result
records = [
    ("CC(C)(C)N1CCN(Cc2cc3nc(-c4cccc5[nH]ccc45)cc(N4CCOCC4)n3n2)CC1", "PI3Kβ (Homo sapiens, UniProt P42338)", "< 6.00"),
    ("CC(C)(C)N1CCN(Cc2cc3nc(-c4c(F)ccc5[nH]ccc45)cc(N4CCOCC4)n3n2)CC1", "PI3Kβ (Homo sapiens, UniProt P42338)", "< 6.00"),
    ("CC(C)(C)N1CCN(Cc2cc3nc(-c4cncc5[nH]ccc45)cc(N4CCOCC4)n3n2)CC1", "PI3Kβ (Homo sapiens, UniProt P42338)", "< 6.00"),
]

----------
procedure.text: Pharmacokinetics testing in vivo, oral, rats
recorded.conditions: rat, Wistar rats, oral 30 mg/kg, serum
In this section, each of the compounds is paired with its reported AUC.
readout.name: AUC (ng·h/mL)

# chemical.string, endpoint.result
records = [
    ("CC(C)(C)N1CCN(Cc2cc3nc(-c4cccc5[nH]ccc45)cc(N4CCOCC4)n3n2)CC1", 1290),
    ("CC(C)(O)C1CCN(Cc2cc3nc(-c4cccc5[nH]ccc45)cc(N4CCOCC4)n3n2)CC1", 3580),
    ("CC(C)(C)N1CCN(Cc2cc3nc(-c4c(F)ccc5[nH]ccc45)cc(N4CCOCC4)n3n2)CC1", 1250),
    ("CC(C)(C)N1CCN(Cc2cc3nc(-n4c(C(F)F)nc5ccccc54)cc(N4CCOCC4)n3n2)CC1", 5030),
]

----------
A short record of IC50 observed with PI3Kα (Homo sapiens) follows.
Sequence (P42336 whole entry, one chain of several): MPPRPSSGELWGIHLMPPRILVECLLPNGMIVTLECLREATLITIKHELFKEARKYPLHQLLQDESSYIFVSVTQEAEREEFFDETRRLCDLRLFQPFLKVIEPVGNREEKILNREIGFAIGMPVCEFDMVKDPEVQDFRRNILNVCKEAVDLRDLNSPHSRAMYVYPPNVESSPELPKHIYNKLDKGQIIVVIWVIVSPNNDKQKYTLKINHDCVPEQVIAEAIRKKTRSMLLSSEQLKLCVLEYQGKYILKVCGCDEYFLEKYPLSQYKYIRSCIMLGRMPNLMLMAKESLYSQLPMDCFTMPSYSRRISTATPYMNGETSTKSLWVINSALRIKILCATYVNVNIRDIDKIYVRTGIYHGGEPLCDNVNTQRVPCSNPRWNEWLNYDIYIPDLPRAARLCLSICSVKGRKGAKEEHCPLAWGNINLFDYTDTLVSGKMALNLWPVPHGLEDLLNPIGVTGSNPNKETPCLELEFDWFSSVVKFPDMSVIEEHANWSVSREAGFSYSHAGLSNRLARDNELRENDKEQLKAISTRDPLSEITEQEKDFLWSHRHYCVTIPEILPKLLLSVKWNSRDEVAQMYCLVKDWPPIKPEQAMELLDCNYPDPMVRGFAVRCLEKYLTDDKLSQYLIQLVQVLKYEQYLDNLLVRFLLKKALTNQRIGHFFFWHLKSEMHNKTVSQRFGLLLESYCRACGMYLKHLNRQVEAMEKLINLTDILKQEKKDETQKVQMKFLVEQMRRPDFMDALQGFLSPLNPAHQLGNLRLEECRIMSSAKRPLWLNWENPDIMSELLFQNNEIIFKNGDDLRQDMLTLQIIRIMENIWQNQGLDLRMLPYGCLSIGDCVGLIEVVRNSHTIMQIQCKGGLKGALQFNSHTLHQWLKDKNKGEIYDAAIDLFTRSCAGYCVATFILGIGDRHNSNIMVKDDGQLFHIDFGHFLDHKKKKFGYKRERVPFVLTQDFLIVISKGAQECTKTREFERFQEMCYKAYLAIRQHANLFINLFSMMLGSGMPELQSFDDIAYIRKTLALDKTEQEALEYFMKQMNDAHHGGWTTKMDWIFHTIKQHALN
readout.name: IC50

# compound, readout.name, endpoint.result
data = [
    ("CS(=O)(=O)N1CCN(Cc2cc3nc(-c4cccc5[nH]ccc45)cc(N4CCOCC4)n3n2)CC1 [Example 2]", "IC50", "> 1000 nM"),
    ("FC(F)c1nc2ccccc2n1-c1cc(N2CCOCC2)n2nc(CN3CC(N4CCC(F)(F)CC4)C3)cc2n1 [Example 66]", "IC50", "100 to 1000 nM"),
    ("CC(C)(C)N1CCN(Cc2nn3c(N4CCOCC4)cc(-n4c(C(F)F)nc5ccccc54)nc3c2Cl)CC1 [Example 71]", "IC50", "100 to 1000 nM"),
    ("CC(C)(C)N1CCN(Cc2cc3nc(-n4c(C(F)F)nc5ccccc54)cc(N4CCOCC4)n3n2)CC1 [Example 50]", "IC50", "100 to 1000 nM"),
    ("CCNC(=O)NC1CCN(Cc2cc3nc(-c4cccc5[nH]ccc45)cc(N4CCOCC4)n3n2)CC1 [Example 38]", "IC50", "> 1000 nM"),
    ("CN1CCN(C2CCN(Cc3cc4nc(-c5c(F)ccc6[nH]ccc56)cc(N5CCOCC5)n4n3)CC2)CC1 [Example 14]", "IC50", "> 1000 nM"),
    ("CC(C)(C)N1CCN(Cc2cc3nc(-c4ccc(N)nc4)cc(N4CCOCC4)n3n2)CC1 [Example 16]", "IC50", "> 1000 nM"),
]
